src = PubChem BioAssay (EPA / NIEHS)

Experiment: ATG_M_06_CIS: Attagene CIS-FACTORIAL HepG2 Assay for M06 Transcription Factor (Internal Marker) (AID 2282950)
Details: HepG2 Attagene CIS-FACTORIAL M06 internal marker reporter; actives raise or lower the signal
The source made the active and inactive calls. How the source made its calls: active means hit-call score of the fitted dose curve at least 0.9, where 1 is the maximum; inactive means score below 0.9.
Write down the outcome that applies. Available outcomes: true = active, false = inactive

[in] In this assay, the call recorded for "CN(C)C(=S)SC(=S)N(C)C" was what?
[out] false

[in] In this assay, the call recorded for "CS(=O)(=O)c1ccc(C2=C(c3ccccc3)C(=O)OC2)cc1" was what?
[out] false

[in] Tell me the assay call for "NC(=S)NNC(N)=S" please.
[out] false

[in] // param item: "O=C(O)c1cccnc1C(=O)O" ; yields the recorded call
[out] false

[in] In this assay, the call recorded for "NCc1ccco1" was what?
[out] false

[in] Hello, I am checking results. What call was entered for "C=CC(=C)CCCC(C)(C)OC(C)=O" ?
[out] false

[in] What outcome does the record of this test show for "CCCCCCCCc1ccc(S(=O)(=O)O)cc1" ?
[out] true

[in] Outcome logged for CCOC(=O)CC(C)O (stereo not drawn) in this assay:
[out] false

[in] Per the records of this test, what outcome belongs to CC(O)C1CCCCC1 (stereo not drawn) ?
[out] false

[in] So what was the verdict on "COc1ccc(OC)c(N=Nc2c(O)ccc3ccccc23)c1" in this test?
[out] false

[in] Lab log entry: "CC(C)(C)OC(=O)c1ccc(O)cc1" — outcome as called in the assay?
[out] false

[in] Query: recorded result category for "Nc1ccccc1[N+](=O)[O-]" in this test
[out] false

[in] // param item: "CCOC(=O)C(C#N)=C(c1ccccc1)c1ccccc1" ; yields the recorded call
[out] false

[in] Returns: the outcome recorded for CC(=O)C1(C)CC2=C(CCCC2(C)C)CC1C (stereo not drawn) in this assay.
[out] false

[in] Any idea what this test logged for "CCOc1ccc(N=Nc2ccc(C=Cc3ccc(N=Nc4ccc(OCC)cc4)cc3S(=O)(=O)O)c(S(=O)(=O)O)c2)cc1" ?
[out] false

[in] Give the logged outcome of this assay for the following compound: "CCCC[O][Al]([O]CCCC)[O]CCCC"
[out] false

[in] What is the recorded call for this compound in the test? CCCCC(CC)COC(=O)c1ccc(O)cc1 (stereo not drawn)
[out] false

[in] # lookup: test call for "CCCCCCCCC=CCCCCCCCC1=NCCN1CCO"
[out] false

[in] I'd appreciate the recorded outcome for CCCCC(CC)COC(C)=O (stereo not drawn) from this test.
[out] false

[in] For this compound, state the assay outcome: "c1ccc(CCc2ccccc2)cc1"
[out] false

[in] Entry "Cc1ccc(N)c(S(=O)(=O)O)c1" : call = ?
[out] false

[in] Recorded call for NCC1CCCC(CN)C1 (stereo not drawn) ?
[out] false

[in] Could you kindly confirm the outcome this assay logged for "[O-]n1ccccc1=S.[O-]n1ccccc1=S.[Zn+2]" ?
[out] false

[in] Each compound tested received a call. Report the one for "O=C1OC2(c3ccccc31)c1ccc(O)c(Br)c1Oc1c2ccc(O)c1Br" .
[out] false

[in] Write down the call the test reported for this compound. Item: "CC(C)OCCO"
[out] false

[in] Just curious, what result did "CC[N+](C)(CC)CC" get here?
[out] false

[in] Outcome logged for "CC=CC=CCOC(=O)C(C)C" in this assay:
[out] false

[in] Please share the test call associated with "OCC#CCO" .
[out] false

[in] Write down the call the test reported for this compound. Item: CC(=O)C(C)O (stereo not drawn)
[out] false

[in] What did the test return for CCCC(=O)C(CC)Sc1ccoc1C (stereo not drawn) ?
[out] false

[in] State the result this test recorded for "N#Cc1ccc(CC(=O)c2cccc(C(F)(F)F)c2)cc1" .
[out] false

[in] // param item: "Cc1cc(=O)oc2cc(N(C)C)ccc12" ; yields the recorded call
[out] false

[in] Given "CCCN(CCC)S(=O)(=O)c1ccc(C(=O)O)cc1" , state the outcome it received in this test.
[out] false

[in] # fetch the recorded call for CC(Oc1cc(Cl)ccc1Cl)C(=O)O (stereo not drawn) here
[out] false

[in] Query: recorded result category for "CCOc1ccccc1O" in this test
[out] false

[in] Just curious, what result did "Oc1ccc2cc(SSc3ccc4cc(O)ccc4c3)ccc2c1" get here?
[out] false

[in] Please state the recorded outcome for this compound: O=C1NC2NC(=O)NC2N1 (stereo not drawn)
[out] false

[in] Any idea what this test logged for C=C[Si]1(C)O[Si](C)(C=C)O[Si](C)(C=C)O[Si](C)(C=C)O1 (stereo not drawn) ?
[out] false

[in] What did this assay record as the result for "CC(=O)NCCO" ?
[out] false

[in] Would you mind telling me which call this test gave "Cc1c(C2(c3cc(Br)c(O)c(Br)c3C)OS(=O)(=O)c3ccccc32)cc(Br)c(O)c1Br" ?
[out] false

[in] Which outcome did this test record for the compound "CCc1ncc(C)[nH]1" ?
[out] false

[in] Please share the test call associated with CC(C=O)Cc1ccc(C(C)(C)C)cc1 (stereo not drawn) .
[out] false

[in] I would be grateful if you could indicate the recorded call for "CCC(=O)O[C@@H]1C[C@H]2CC[C@]1(C)C2(C)C" .
[out] false

[in] Per the records of this test, what outcome belongs to "CC(C)(C)CC(C)(C)c1ccc(OCCOCC[N+](C)(C)Cc2ccccc2)cc1" ?
[out] false

[in] Please indicate how the test categorized "O=CN1CCOCC1" .
[out] false

[in] Please share the test call associated with "CCCCCCCC/C=C\CCCCCCCC(=O)OCC" .
[out] false

[in] // outcome(item) with item = "C[Si]1(C)O[Si](C)(C)O[Si](C)(C)O1"
[out] false

[in] Please state the recorded outcome for this compound: "COc1ccc(N)c([N+](=O)[O-])c1"
[out] false

[in] So what was the verdict on "C=CC(=O)OCCC#N" in this test?
[out] false

[in] Lab log entry: CC(C)=CCCC(C)CC(=O)O (stereo not drawn) — outcome as called in the assay?
[out] false

[in] Test call, this compound: "CCCCCCCCCCCCCCN(CCO)CCO"
[out] false

[in] Identify the outcome logged in this assay for the compound shown: CCCCCCC(C)Nc1ccc(Nc2ccccc2)cc1 (stereo not drawn)
[out] false

[in] Call for entry "CN(C)c1cccc(O)c1" :
[out] false

[in] Short answer needed: outcome of this test for "CC1=CC[C@@]23C[C@@H]1C(C)(C)[C@@H]2CC[C@H]3C" ?
[out] false

[in] For this compound, state the assay outcome: Cc1c(OCC(F)(F)F)ccnc1CS(=O)c1nc2ccccc2[nH]1 (stereo not drawn)
[out] false

[in] Look up the recorded call for "NCCNc1cccc2ccccc12" in this test.
[out] false

[in] Recorded test outcome, item "COc1ccc(N=Nc2cc(C)c(N=Nc3ccc(S(=O)(=O)O)cc3)cc2OC)cc1"
[out] false

[in] Which outcome was assigned to C#CC(C)N(C)C(=O)Nc1ccc(Cl)cc1 (stereo not drawn) in this test?
[out] false

====

Experiment: ATG_FoxO_CIS: Attagene CIS-FACTORIAL HepG2 Assay for human Forkhead box O (FoxO) (AID 2282943)
Conditions: HepG2 Attagene cis-reporter, FoxO element, mRNA; actives raise or lower the signal
The source made the active and inactive calls. The calls were made as follows: active = hit-call score of the fitted dose curve at least 0.9, where 1 is the maximum; inactive = score below 0.9.
Outcome field: choose from class 1 (active), class 0 (inactive)

[in] What did this assay record as the result for CC1CC(O)CC(C)(C)C1 (stereo not given) ?
[out] class 0

[in] Which outcome was entered for the compound "CCOc1ccc(NC(=O)CC(C)=O)cc1" in this test?
[out] class 0

[in] Fill in: this test's call for "C[C@H]1O[C@@H](O[C@H]2[C@@H](O)C[C@H](O[C@H]3[C@@H](O)C[C@H](O[C@H]4CC[C@@]5(C)[C@H](CC[C@@H]6[C@@H]5C[C@@H](O)[C@]5(C)[C@@H](C7=CC(=O)OC7)CC[C@]65O)C4)O[C@@H]3C)O[C@@H]2C)C[C@H](O)[C@@H]1O" is ___
[out] class 1

[in] Short answer needed: outcome of this test for "CC1=CC[C@@]23C[C@@H]1C(C)(C)[C@@H]2CC[C@H]3C" ?
[out] class 1

[in] Per the assay record, what outcome was assigned to "CCCCCCCCCCCC(=O)OC[C@@H](O)[C@H]1OC[C@H](O)[C@H]1O" ?
[out] class 0

[in] Tell me the recorded outcome of this test for "C=C(C)[C@H]1CC=C(C)C(=O)C1" .
[out] class 0

[in] Answer briefly: the call reported for "CC(C)c1ccccc1O" in this assay.
[out] class 0

[in] Could you kindly confirm the outcome this assay logged for "OCCOCCN1CCN(C2=Nc3ccccc3Sc3ccccc32)CC1" ?
[out] class 0

[in] Could you please tell me the result logged for "C=CCCCCCCCCCC" in this assay?
[out] class 0

[in] Fill in: this test's call for "CC(=O)O[C@@H]1C[C@@H]2CC[C@@]1(C)C2(C)C" is ___
[out] class 0

[in] For this compound, state the assay outcome: "COc1cccc(OC)c1O"
[out] class 0

[in] Check the results log: what was the call for "COc1ccc(N=Nc2cc(C)c(N=Nc3ccc(S(=O)(=O)O)cc3)cc2OC)cc1" ?
[out] class 0

[in] Hi team, can someone confirm the assay call for "O=c1[nH]c(=O)c2cn[nH]c2[nH]1" ?
[out] class 0

[in] Which outcome was entered for the compound C=CC(C)(O)CCC=C(C)C (stereo not given) in this test?
[out] class 0

[in] Lab log entry: "N#Cc1ccc(CC(=O)c2cccc(C(F)(F)F)c2)cc1" — outcome as called in the assay?
[out] class 0

[in] Which result was noted for this compound in the test: "O=c1c(O)c(-c2ccc(O)cc2)oc2cc(O)cc(O)c12"
[out] class 0

[in] Give the logged outcome of this assay for the following compound: "COc1ccccc1[N+](=O)[O-]"
[out] class 0

[in] Status in this test for "CN(C)c1ccncc1" ?
[out] class 0

[in] Which outcome was entered for the compound "CCCC[O][Al]([O]CCCC)[O]CCCC" in this test?
[out] class 0

[in] How did this test come out for "c1ccc2[nH]cnc2c1" ?
[out] class 0

[in] Given "C=Cc1ccc(C(C)(C)C)cc1" , state the outcome it received in this test.
[out] class 0

[in] Name the outcome recorded for "Cc1ncc[nH]1" in the assay.
[out] class 0

[in] GET /call?item= "COc1ccc(CCO)cc1" returns the recorded outcome of this test.
[out] class 0

[in] // return assay outcome for "CC(=O)Nc1ccc(C(=O)CCl)cc1"
[out] class 0

[in] Dear colleague, could you share the recorded outcome for "CCC1(c2ccccc2)C(=O)NCNC1=O" when you have a moment?
[out] class 0

[in] Please state the recorded outcome for this compound: "CCc1ccc(O)cc1"
[out] class 0

[in] Assay result, entry COC(=O)c1ccc(C)cc1C1=NC(C)(C(C)C)C(=O)N1 (stereo not given) (tested in a mixture with another compound) — outcome?
[out] class 0

[in] What did this assay record as the result for OCCCCC(O)CO (stereo not given) ?
[out] class 0

[in] Lab log entry: "CCCOCCO" — outcome as called in the assay?
[out] class 0

[in] Call for entry "C[N+](C)(C)CCCCCC[N+](C)(C)C" :
[out] class 0

[in] Look up the recorded call for "Nc1ccccc1[N+](=O)[O-]" in this test.
[out] class 0

[in] Which outcome was entered for the compound "O=C(O)c1ccc(O)cc1" in this test?
[out] class 0

[in] Short answer needed: outcome of this test for "ClC(c1ccccc1)(c1ccccc1)c1ccccc1" ?
[out] class 0

[in] How did this test come out for "CCNCCO" ?
[out] class 0

[in] Dear colleague, could you share the recorded outcome for "CCOC(=O)CN" when you have a moment?
[out] class 0

[in] Call for entry "CCc1cc(Cc2cc(CC)cc(C(C)(C)C)c2O)c(O)c(C(C)(C)C)c1" :
[out] class 0

[in] Please indicate how the test categorized "CCN(CCC#N)c1ccc(N=Nc2ccc([N+](=O)[O-])cc2)cc1" .
[out] class 0

[in] Can you look up the reported call for "Cc1ccc(N)c(S(=O)(=O)O)c1" for me?
[out] class 0

[in] What classification did "CC(C)CCCCCCc1ccc(OCCOCCO)cc1" end up with in this test?
[out] class 0

[in] I'd appreciate the recorded outcome for CC1C2CC(CC2C2CCCC(O)C2)C1(C)C (stereo not given) from this test.
[out] class 0
